tgt: DRB1*1101 (DR11) (Homo sapiens, UniProt P01903+P01911, A100R/A169T/A87E/I96F/K41T/L162R/M171V/P40S/Q125H/Q178H/Q39Y/Q99D/R42S/S66Y/T262R/V115G/W38E)
Type: binding
Returns: string. Value is Yes if measured Relative binding affinity of peptide to HLA-DR molecules, DR11 is below 40, and No if it is greater than or equal to it.

query sequence: SKKFIDIFKEEGSNLTSYGR
answer label: Yes

query sequence: VLVIQSSEDYVENTEKALNV
answer label: No

query sequence: YYEIGKILSRDILSKINQPY
answer label: Yes

query sequence: AKAFAYYIEPQHRDVLQLYA
answer label: Yes

query sequence: SEGFIHEFGHAVDDYAGYLL
answer label: No

query sequence: RNKTQEEHLKEIMKHIVKIE
answer label: Yes

query sequence: YGKDALLHEHYVYAKEGYEP
answer label: Yes

query sequence: PESRSILLHGPSKGVELRND
answer label: No

query sequence: VENTEKALNVYYEIGKILSR
answer label: Yes

query sequence: EAQLNINQEWNKALGLPKYT
answer label: No

query sequence: KIYLYENMNINNLTATLGAD
answer label: Yes

query sequence: AVDDYAGYLLDKNQSDLVTN
answer label: No

query sequence: LENGKLILQRNIGLEIKDVQI
answer label: Yes

query sequence: DTGGLIDSPSINLDVRKQYK
answer label: No

query sequence: PEAFNYMDKFNEQEINLSLE
answer label: Yes

query sequence: NKALGLPKYTKLITFNVHNR
answer label: Yes

query sequence: EIMKHIVKIEVKGEEAVKKE
answer label: Yes

query sequence: KELLNRIQVDSSNPLSEKEK
answer label: No

query sequence: YVYAKEGYEPVLVIQSSEDY
answer label: Yes

query sequence: EQYTHQDEIYEQVHSKGLYV
answer label: Yes

query sequence: YLVDGNGRFVFTDITLPNIA
answer label: No

query sequence: QSDLIKKVTNYLVDGNGRFV
answer label: No

query sequence: QNSNEVQEVFAKAFAYYIEP
answer label: Yes

query sequence: KLITFNVHNRYASNIVESAY
answer label: Yes

query sequence: LLFTNQLKEHPTDFSVEFLE
answer label: No

query sequence: HQSIGSTLYNKIYLYENMNI
answer label: No

query sequence: IGLEIKDVQIIKQSEKEYIRIDAKVVP
answer label: No

query sequence: EYIRIDAKVVPKSKIDTKIQ
answer label: Yes

query sequence: QHRDVLQLYAPEAFNYMDKF
answer label: Yes

query sequence: SDVLEMYKAIGGKIYIVDGD
answer label: Yes

====

tgt: DRB1*0301 (DR3) (Homo sapiens, UniProt P01903+P01911, A100K/A102G/A103R/A169T/F55Y/I96L/K41T/L162R/M171V/P40S/Q125H/Q178H/Q39Y/R42S/S66N/T106N/T262R/W38E/Y61H)
Format: binding
Measured Relative binding affinity of peptide to HLA-DR molecules, DR3, listed per entry for reference.
quantity measured: Relative binding affinity of peptide to HLA-DR molecules, DR3

query sequence: SDVLEMYKAIGGKIYIVDGD
value: >76
--
query sequence: YVYAKEGYEPVLVIQSSEDY
value: >238
--
query sequence: YGKDALLHEHYVYAKEGYEP
value: >76
--
query sequence: SEGFIHEFGHAVDDYAGYLL
value: >1 000
--
query sequence: RNKTQEEHLKEIMKHIVKIE
value: >76
--
query sequence: PEAFNYMDKFNEQEINLSLE
value: >76
--
query sequence: LLFTNQLKEHPTDFSVEFLE
value: >76

====

tgt: DRB1*1301 (DR13) (Homo sapiens, UniProt P01903+P01911, A100E/A169T/K41T/L162R/M171V/P40S/Q125H/Q178H/Q39Y/Q99D/R42S/S66N/T262R/W38E/Y61H)
Type: binding
Items are presented alongside their recorded Relative binding affinity of peptide to HLA-DR molecules, DR13.
quantity measured: Relative binding affinity of peptide to HLA-DR molecules, DR13

query sequence: DTGGLIDSPSINLDVRKQYK
relational operator: =
value: 8
//
query sequence: YYEIGKILSRDILSKINQPY
relational operator: =
value: 5
//
query sequence: PEAFNYMDKFNEQEINLSLE
relational operator: >
value: 172
//
query sequence: EAQLNINQEWNKALGLPKYT
relational operator: =
value: 17
//
query sequence: QNSNEVQEVFAKAFAYYIEP
relational operator: =
value: 327
//
query sequence: EQYTHQDEIYEQVHSKGLYV
relational operator: =
value: 15
//
query sequence: AKAFAYYIEPQHRDVLQLYA
relational operator: =
value: 9
//
query sequence: QHRDVLQLYAPEAFNYMDKF
relational operator: =
value: 267
//
query sequence: QSDLIKKVTNYLVDGNGRFV
relational operator: =
value: 38
//
query sequence: LENGKLILQRNIGLEIKDVQI
relational operator: =
value: 9
//
query sequence: EYIRIDAKVVPKSKIDTKIQ
relational operator: =
value: 24
//
query sequence: RNKTQEEHLKEIMKHIVKIE
relational operator: =
value: 8
//
query sequence: PESRSILLHGPSKGVELRND
relational operator: =
value: 21
//
query sequence: SDVLEMYKAIGGKIYIVDGD
relational operator: =
value: 123
//
query sequence: EIMKHIVKIEVKGEEAVKKE
relational operator: =
value: 19
//
query sequence: VENTEKALNVYYEIGKILSR
relational operator: =
value: 71
//
query sequence: IGLEIKDVQIIKQSEKEYIRIDAKVVP
relational operator: =
value: 24
//
query sequence: LLFTNQLKEHPTDFSVEFLE
relational operator: >
value: 172
//
query sequence: KLITFNVHNRYASNIVESAY
relational operator: =
value: 0.5
//
query sequence: HQSIGSTLYNKIYLYENMNI
relational operator: =
value: 5

====

tgt: DRB1*1301 (DR13) (Homo sapiens, UniProt P01903+P01911, A100E/A169T/K41T/L162R/M171V/P40S/Q125H/Q178H/Q39Y/Q99D/R42S/S66N/T262R/W38E/Y61H)
Assay type: binding
quantity measured: Relative binding affinity of peptide to HLA-DR molecules, DR13

query sequence: AVDDYAGYLLDKNQSDLVTN
value: >2 733
//
query sequence: SKKFIDIFKEEGSNLTSYGR
value: 1,225
//
query sequence: SEGFIHEFGHAVDDYAGYLL
value: >2 733
//
query sequence: YLVDGNGRFVFTDITLPNIA
value: >2 733
//
query sequence: KELLNRIQVDSSNPLSEKEK
value: 1,714
